System: Mus musculus
measurement.protocol: Inhibition of diazepam-induced amnesia in NMRI mouse at 0.1 mg/kg, po by one-trial passive avoidance test
Type: functional
property.measured: inhibition in vivo at 0.1 mg/kg (%)
Write the number in % without appending the unit.

Entry "CC[C@]12C=C(C(=O)OCCOC(C)=O)n3c4c(c5ccccc53)CCN(CCC1)[C@H]42" , inhibition in vivo at 0.1 mg/kg reported as 72

Entry "CC[C@]12C=C(C(=O)OCCOC(=O)c3ccccc3)n3c4c(c5ccccc53)CCN(CCC1)[C@H]42" , inhibition in vivo at 0.1 mg/kg reported as 23

Entry "CC[C@@]12C=C(C(=O)OCCOC(=O)c3ccc(Cl)cc3)n3c4c(c5ccccc53)CCN(CCC1)[C@@H]42" , inhibition in vivo at 0.1 mg/kg reported as 3

Entry "CC[C@@]12C=C(C(=O)OCCOC(C)=O)n3c4c(c5ccccc53)CCN(CCC1)[C@@H]42" , inhibition in vivo at 0.1 mg/kg reported as 79

Entry "CCC(=O)OCCOC(=O)C1=C[C@]2(CC)CCCN3CCc4c(n1c1ccccc41)[C@H]32" , inhibition in vivo at 0.1 mg/kg reported as 16

Further cases:
Entry CCOC(=O)C1=C[C@]2(CC)CCCN3CCc4c(n1c1ccccc41)[C@@H]32 [VINPOCETINE] , inhibition in vivo at 0.1 mg/kg reported as 0

Entry "CC[C@@]12C=C(C(=O)OCCO)n3c4c(c5ccccc53)CCN(CCC1)[C@@H]42" , inhibition in vivo at 0.1 mg/kg reported as 74

Entry "CC[C@]12C=C(C(=O)OCCO)n3c4c(c5ccccc53)CCN(CCC1)[C@H]42" , inhibition in vivo at 0.1 mg/kg reported as 50

Entry "CCC(=O)OCCOC(=O)C1=C[C@@]2(CC)CCCN3CCc4c(n1c1ccccc41)[C@@H]32" , inhibition in vivo at 0.1 mg/kg reported as 64

Entry "CC[C@@]12C=C(C(=O)OCCOC(=O)c3ccccc3)n3c4c(c5ccccc53)CCN(CCC1)[C@@H]42" , inhibition in vivo at 0.1 mg/kg reported as 0

Numbers sourced from ChEMBL document CHEMBL1140729.
